- ASSAYED SYSTEM: HIF-1-mediated transcription
- PROTOCOL NOTES: HIF-1-mediated transcription under hypoxia, LN229-HRE-Lux luciferase reporter assay
- Assay type: cell-based, human
- COND: Table 2; LN229-HRE-Lux cells, hypoxia (1% O2), 24 h; read-out: IC50
- Protocol: The synthesized analogues were evaluated for their potential to inhibit HIF-1-mediated transcription under hypoxia (1% O2) using a human glioma cell line LN229-HRE-Lux, which stably expresses a hypoxia-responsive luciferase reporter gene (Table 1-9). […] The compounds were tested in single (n=1) or multiple (n>1) independent experiments each carried out in quadruplicate. LN229-HRE-luciferase human glioblastoma cells were used to perform the assay. […]
MEASURED ATTRIBUTE: IC50 (µM)
Numbers only, in µM.

Fill blank: measured IC50 of the compound COc1ccc(S(=O)(=O)N(Cc2ccc3c(c2)C=CC(C)(C)O3)C2CC2)cc1OC [Compound 5h] is ____. 1.5

Values were extracted from patent US9062072B2.
